The reported measurements were obtained from a melting point compilation (Tetko et al.; mined from patent text by program, amines drawn as free bases though some values may be those of a salt).

// values below are reported melting point

| MOLECULE | melting point |
| --- | --- |
| CCOCn1c(Br)c(Br)c(C#N)c1C(F)(F)F | 65 to 67 °C |
| Cc1ccc(NC(=O)c2ccc(CN(C)C)c(C(F)(F)F)c2)cc1Br | 169 to 172 °C |
| NC(=O)c1sc2nc(N3CCC(NCC(O)c4ccc5c(c4)OCO5)CC3)cc(C(F)(F)F)c2c1N (stereo not given) | 232 to 234 °C |
| COc1cc(N)c(Cl)cc1C(=O)NCC1CCN(CCCCCC(=O)c2c(C)oc3ccccc23)CC1 | 133 to 135 °C |
| FCc1nc(C#CCCc2cn3cc(F)ccc3n2)cs1 | 82 to 84 °C |
| CN1CCN(CCCNc2ncc3cc(-c4c(Cl)cccc4Cl)c(=O)n(C)c3n2)CC1 | 170 to 172 °C |
| Cc1cccc(NC(=O)NCC(=O)N(CC(=O)OC(C)(C)C)c2ccccc2C(=O)N2CCCc3ccccc32)c1 | 160 °C |
| COC(=O)c1ccc(C2C(C(=O)c3ccc(C)cc3)=C(O)C(=O)N2c2ncc(S(=O)(=O)c3ccc([N+](=O)[O-])cc3)s2)cc1 (stereo not given) | 249 to 251 °C |
| NC(=S)C=Cc1ccc(C(F)(F)F)cc1 | 167 to 170 °C |
| CC1(C)CC(NC(=O)c2cc(C(C)(C)C)c(O)c(C(C)(C)C)c2)CC(C)(C)N1 | 256 to 258 °C |
| Cc1nc2n(c(=O)c1CCN1CCC(c3c[nH]c4ccccc34)CC1)CCCS2 | 227 °C |
| Cc1nc(CCl)c(Br)s1 | 154 to 156 °C |
| Cc1ccc(O)cc1NC(=O)CC12CC3CC(CC(C3)C1)C2 | 255 to 256 °C |
| Cc1nc(-n2ccc(-c3ccc(Cl)cc3)cc2=O)sc1C(=O)NCc1ccccc1 | 265 to 267 °C |
| COc1cc(C=C(C=O)C(C=O)=Cc2ccc(OC(C)=O)c(OC)c2)ccc1OC(C)=O | 149 to 151 °C |
| Cn1cc(-c2ccccc2)c(=O)c(-c2cccc(-c3ccccc3)c2)c1 | 186 to 190 °C |
| C#CCNc1cccc2c1OC(F)(F)O2 | 66 to 68 °C |
| CN(C(=O)CNc1nc(-c2ccccc2)ncc1N)c1ccccc1 | 183 to 184 °C |
| CCCc1nc2c(N)nc3cc(OCCNC(=O)OC(C)(C)C)ccc3c2s1 | 136 to 139 °C |
| COC(=O)c1cnc2c3cc(NS(C)(=O)=O)ccc3ncn2c1=O | 293 to 296 °C |

====

// values below are reported melting point

| COMPOUND | melting point |
| --- | --- |
| CC(C)c1cccc(C(C)C)c1NC(=O)CS(=O)(=O)Nc1c(C(C)C)cccc1C(C)C | 202 to 205 °C |
| CCNC(=O)C(=O)NCC(OCC)OCC | 131 to 132 °C |
| COc1cccc(NC(=O)C(C)(C)C)c1C(C)=O | < 48 °C |
| Oc1ccc2c(c1)OCC(c1ccc(C(F)(F)F)cc1)C2c1ccc(OCCN2CCCCC2)cc1 (stereo unspecified) | 117 to 119 °C |
| CC(C)Cn1cnc2cnc3cccnc3c21 | 82 to 84 °C |
| CCC[C@H]1CC[C@H](c2ccc(OCC)c(C#N)c2)CC1 | 32 °C |
| FC(F)(F)c1nc(-c2ccc(OCCCn3ccnc3)cc2)no1 | 73 to 73.5 °C |
| O=C(Nc1ccc(C2CCC(O)C2)cc1)OCc1ccccc1 (stereo unspecified) | 99 to 101 °C |
| O=C(C=C1OC(=O)c2cccc(Cl)c21)c1ccccc1 | 148 °C |
| Cn1nc(-c2ccccc2)cc1Cl | 61 to 62 °C |
| CCOc1cc(N)c(Cl)cc1C(=O)NCC1CN(CC2CCN(Cc3cccc(F)c3)CC2)CCO1 (stereo unspecified) | 172 to 174 °C |
| O=C1CN(C(c2ccccc2)c2ccccc2)N1 | 160 to 163 °C |
| Cc1cnn(-c2ccc(C(=O)N3Cc4cccn4Cc4ccccc43)cc2)c1 | 179 to 181 °C |
| CC1=C(S(C)(=O)=O)C(c2ccccc2[N+](=O)[O-])C(C(=O)OC2CCCC2)=C(N=CN(C)C)N1 (stereo unspecified) | 175 °C |
| N#CCCCCCCCCCCCCC#N | < 40 °C |
| COc1cc(C(=O)Oc2cc(Cl)c(Cl)cc2Cl)ccc1Cc1cn(C)c2ccc([N+](=O)[O-])cc12 | 134 to 136 °C |
| O=C(O)c1cccc2c1Cc1c-2[nH]c2ccc(Cl)cc12 | > 300 °C |
| O=C(CC1CCN(CCn2c(=O)[nH]c3ccccc32)CC1)c1ccc(F)cc1 | 181 °C |
| Oc1ccc(C2CCc3ccc(O)cc3O2)cc1 (stereo unspecified) | 110 to 111 °C |
| Cc1noc(C)c1S(=O)(=O)Nc1ccc(Cl)cc1 | 144 °C |
| O=C1c2ccccc2C(O)N1CCCCCCl (stereo unspecified) | 77 to 79 °C |
| Oc1c(-c2ccccc2)cc(Cn2c(=S)sc3ccccc32)cc1-c1ccccc1 | 145 to 146 °C |
| CC(C)(C)c1cc(CCc2ccccc2NC(=O)NCC(C)(C)c2ccc(Cl)c(Cl)c2)cc(C(C)(C)C)c1O | 165 to 167 °C |
| COc1ccc(C2=NN(CCCCCN3C(=O)c4ccccc4C3=O)C(=O)[C@H]3CC=CC[C@@H]23)cc1OC (relative stereo) | 126 to 129 °C |
| CC(C)(C)c1nc(C[C@@H]2CC[C@](C)(NCC(=O)N3C[C@@H](F)C[C@H]3C#N)C2(C)C)no1 | 152 to 154 °C |
| COc1cccc(Sc2cccc(N)c2C#N)c1 | 79 to 81 °C |
| CN(C)C(=O)N1CCC(=NO)c2cc(F)ccc21 | 147 to 150 °C |
| O=C(O)c1cc2cc(-c3ccc(O)cc3)ccc2o1 | 297 to 300 °C |
| CC(=O)Nc1ccc(S(=O)(=O)NCCCn2ccnc2)cc1 | 178 to 180 °C |
| CC(C)(C)OC(=O)N1CC(CCl)c2c1cc(OCc1ccccc1)c1ncccc21 (stereo unspecified) | 178 to 179 °C |
| CCC(=O)N1N=C(c2ccc(N)c(C)c2)c2cc(Cl)ccc2C=C1C | 218 to 221 °C |
| COC(=O)C#CC(=O)c1cccc(OC)c1 | 32 to 34 °C |
| Cc1cncn1-c1cc(NC(=O)OC(C)(C)C)cc(C(F)(F)F)c1 | 169 to 171 °C |
| CCS(=O)(=O)NNC(=O)NNS(=O)(=O)CC | 195 °C |
| CCN1CCN(Cc2nc3sc4c(c3c(=O)n2-c2ccccc2Cl)CCCC4)CC1 | 140 to 142 °C |
| O=C(c1ccccc1)c1ccc(OC(=O)C2CCCCC2)cc1 | 111 to 112 °C |
| CCOc1ccc(-c2c(Cl)ncn2-c2ccc(S(=O)(=O)NC(C)(C)C)cc2)cc1 | 189 °C |
| Cn1cnc(COc2nn3c(-c4cccc(F)c4)nnc3cc2-c2ccccc2)n1 | 250 to 251 °C |
| Cn1nc(-c2ccc(Cl)cc2)nc1-c1ccncc1 | 191 °C |
| CC(C)c1cccc(C(C)C)c1NC(=O)Nc1ccccc1CCc1cc(C(C)(C)C)c(O)c(C(C)(C)C)c1 | 209 to 210 °C |
| CC(NC(=O)C(N)CC(=O)O)C(=O)NC1C(C)(C)SC1(C)C (stereo unspecified) | 57.2 °C |

====

READOUT_LABEL: melting point

| MOLECULE | RECORDED_RESULT |
| --- | --- |
| CC(C)(C)C(=O)C(Cl)Oc1ccc(-c2ccccc2)cc1 (stereo not given) | 185 to 190 °C |
| O=C(c1ccc(-n2cncn2)cc1)N1CCC(NCc2ccccc2)CC1 | 137 to 138 °C |
| COc1ccc(C(C)N(C)CCCOc2ccc(S(=O)(=O)c3c(C(C)C)cn4ccccc34)cc2)cc1OC (stereo not given) | 82 to 83 °C |
| CC(=O)N1N=C2C(=Cc3ccccc3)CS(=O)(=O)CC2C1c1ccccc1 (stereo not given) | 218 to 220 °C |
| CCCN(CCC)C1Cc2cccc3[nH]c(=S)n(c23)C1 (stereo not given) | 150 to 151 °C |

====

// values below are reported melting point

| MOLECULE | melting point |
| --- | --- |
| O=C1NCCN1c1ccc(S(=O)(=O)Nc2cccc(Br)c2)cc1 | 184 to 185 °C |
| O=Cc1ccc(OCCCC(=O)O)c([N+](=O)[O-])c1 | 136 to 139 °C |
| CCn1cc(C(=O)O)c(=O)c2cc(C=NO)sc21 | 315 to 317 °C |
| COC(=O)COc1ccc(-c2ccc(C(=O)O)cc2)cc1-c1ccc2c(c1)C(C)(C)CCC2(C)C | 104 to 106 °C |
| Cc1ccc(C)c(Oc2oc(-c3ccc(Cl)cc3)nc2CC(=O)O)c1 | 185 °C |
| Cc1nc2c(N)nc3c(c2n1CCCCS(=O)(=O)C(C)C)CCCC3 | 177 to 178 °C |
| CC1CCc2c(O)ccc3c(=O)c(C(=O)O)cn1c23 (stereo not given) | > 300 °C |
| CCCCCCCCCCCCCCCCCCc1c(C)[nH]c(C(=O)OCC)c1C | 76 to 78 °C |
| CC12CCC3c4c(O)cc(O)cc4CCC3C1CCC2=O (stereo not given) | 245 to 247 °C |
| O[C@@H]1CCCN(C[C@@H]2CCN(CCc3c[nH]c4ccc(-n5cncn5)cc34)C2)[C@@H]1c1ccccc1 | 192 to 193 °C |
